Test system: HCT116
Assay: cell viability (CellTiter-Glo) relative to plate median (fraction of plate median); higher = more viable cells
Details: 5 µM; treatment time 24 h; reporter: TCF4/Wnt
Exam item: assign YES to entries whose cell viability is below 1 and NO to entries at or above 1. Note that a value of exactly 1 receives NO.

compound	group label
CC(=O)Nc1cccc(O)c1	NO
COc1ccc([C@H]2Oc3cc(OC)cc(OC)c3C[C@H]2O)cc1	YES
O=c1cc(-c2ccc(O)cc2)oc2ccc(O)cc12	NO
CN(C)[C@@H]1C(O)=C(C(N)=O)C(=O)[C@@]2(O)C(O)=C3C(=O)c4c(O)cccc4[C@@](C)(O)[C@H]3C[C@@H]12	NO
Nc1c2c(nc3ccccc13)CCCC2O (stereo not drawn)	NO
CC(C)C1=C2[C@H]3CCC4[C@@H]5[C@H](O[C@@H]6OC[C@@H](O)[C@H](O[C@@H]4O)C65O)[C@]3(C)CC[C@@]2(C)CC1 (stereo partly drawn)	YES
C[N+](C)(C)CCOP(=O)(O)OP(=O)([O-])OC[C@H]1O[C@@H](n2ccc(N)nc2=O)[C@H](O)[C@@H]1O	YES
O=C(O)c1cc(O)c2c(c1)C(=O)c1cc(O)cc(O)c1C2=O	YES
C[C@H](CCC(=O)O)[C@H]1CC[C@H]2[C@@H]3CC[C@@H]4C[C@H](O)CC[C@]4(C)[C@H]3CC[C@]12C	NO
C[C@@H]1CC2C3C[C@H](F)C4=CC(=O)C=C[C@]4(C)[C@@]3(F)[C@@H](O)C[C@]2(C)[C@@]1(O)C(=O)COC(=O)C(C)(C)C (stereo partly drawn)	YES
Oc1c(Cl)cc(Cl)c(Cl)c1Cc1c(O)c(Cl)cc(Cl)c1Cl	NO
CCOc1cccc(C(=O)c2ccc(O)c(O)c2O)c1	NO
CC(=O)N1CCCC(N)C1=O (stereo not drawn)	YES
CC[C@H](C)C(=O)O[C@H]1C[C@@H](C)C=C2C=C[C@H](C)[C@H](CC[C@@H]3C[C@@H](O)CC(=O)O3)[C@H]21	NO
COc1ccc(-c2oc3c(CC=C(C)C)c(O[C@@H]4O[C@H](CO)[C@@H](O)[C@H](O)[C@H]4O)cc(O)c3c(=O)c2O[C@@H]2O[C@@H](C)[C@H](O)[C@@H](O)[C@H]2O)cc1	NO
O=C(O)/C=C/C=C/c1ccccc1	YES

* * *

Listed here are compounds together with their documented TCF/Wnt firefly luciferase reporter signal.
Tested on: SW480
Test: TCF/Wnt firefly luciferase reporter signal relative to plate median (fraction of plate median); higher = higher Wnt reporter signal
Conditions: 5 µM; treatment time 24 h; reporter: 7TFP
observed property: TCF/Wnt firefly luciferase reporter signal

compound	study system	reading
Nc1ccc(C(=O)NCC(=O)O)cc1	SW480	0.984
O=C1NCC2(CCN(CCc3ccccc3)CC2)O1	SW480	1.01
C/C=C1\[C@H]2C=C(C)C[C@]1(N)c1ccc(=O)[nH]c1C2	SW480	1
C=C1[C@@H]([C@@]2(C)C=CC(=O)C(C)(C)[C@@H]2CC(=O)OC)CC[C@@]2(C)[C@H](c3ccoc3)OC(=O)[C@H]3O[C@]132	SW480	0.996
CC(=O)OCC(CCn1cnc2cnc(N)nc21)COC(C)=O	SW480	1.02
NC[C@@H]1O[C@H](O[C@H]2[C@@H](O)[C@H](O[C@@H]3[C@@H](O)[C@H](N)C[C@H](N)[C@H]3O[C@H]3O[C@H](CO)[C@@H](O)[C@H](O)[C@H]3N)O[C@@H]2CO)[C@H](N)[C@@H](O)[C@@H]1O	SW480	0.995
OC(CCN1CCCC1)(c1ccccc1)C1CCCCC1 (stereo unspecified)	SW480	0.981
Cc1cc(=O)[nH]c(=S)[nH]1	SW480	0.984
O=c1c(O)c(-c2ccc(O)c(O)c2)oc2c(O[C@@H]3O[C@H](CO)[C@@H](O)[C@H](O)[C@H]3O)c(O)cc(O)c12	SW480	0.997
O=C(N[C@H](CO)[C@H](O)c1ccc([N+](=O)[O-])cc1)C(Cl)Cl	SW480	1
COc1cc(OC)c2c(=O)c(-c3ccc4c(c3)OCO4)coc2c1	SW480	1.02
O=C(O)c1cc(=O)c2ccccc2o1	SW480	0.993
NS(=O)(=O)c1cc2c(cc1Cl)NC(C(Cl)Cl)NS2(=O)=O (stereo unspecified)	SW480	0.991
CN(C)c1nc(N(C)C)nc(N(C)C)n1	SW480	1.01
COc1ccc2c(=O)c(CC(=O)O)coc2c1	SW480	0.985
Cc1cc(C(C)(C)C)cc(C)c1CC1=NCCN1	SW480	0.991

* * *

System: HCT116
Experiment: cell viability (CellTiter-Glo) relative to plate median (fraction of plate median); higher = more viable cells
Conditions: 5 µM; treatment time 24 h; reporter: TCF4/Wnt
observed property: cell viability

compound	reading
CCc1nc(N)nc(N)c1-c1ccc(Cl)cc1	0.999
NC[C@@H]1O[C@H](O[C@H]2[C@@H](O)[C@H](O[C@@H]3[C@@H](O)[C@H](N)C[C@H](N)[C@H]3O[C@H]3O[C@H](CO)[C@@H](O)[C@H](O)[C@H]3N)O[C@@H]2CO)[C@H](N)[C@@H](O)[C@@H]1O	0.975
C[C@@](Cc1ccc(O)c(O)c1)(NN)C(=O)O	0.981
CC(C)CC1NC(=O)C(NC(=O)c2ncccc2O)C(C)OC(=O)C(c2ccccc2)N(C)C(=O)C(C)NC(=O)C(C(C)C(C)C)N(C)C(=O)CN(C)C(=O)C2CCCN2C1=O (single isomer, unassigned; isomere) [Neoviridogrisein II (Isomere)]	0.991
CCCCCCCCCCCCCCCCCCOCC(O)CO (stereo not drawn)	0.989
OC(c1cc(C(F)(F)F)nc2c(C(F)(F)F)cccc12)C1CCCCN1 (stereo not drawn)	1
C[C@H]1[C@H](C)CC[C@]2(CO)CC[C@]3(C)C(=CC[C@@H]4[C@@]5(C)CC[C@H](O)C(C)(C)[C@@H]5CC[C@]43C)[C@H]12	1.02
C/C=C/C=C/C1C=CC2CC(C)CCC2C1(C)/C(O)=C1/C(=O)NC(C(C)O)C1=O (stereo not drawn)	0.974

* * *

System: HCT116
Assay: cell viability (CellTiter-Glo) relative to plate median (fraction of plate median); higher = more viable cells
Conditions: 5 µM; treatment time 24 h; reporter: TCF4/Wnt
Listed here are molecules together with their documented cell viability.

molecule	cell viability
NS(=O)(=O)c1cc2c(cc1Cl)N=C(CSCc1ccccc1)NS2(=O)=O	1.08
CS(=O)(=O)CCCCN=C=S	0.888
CC(=O)N[C@@H](CC(=O)c1ccccc1N)C(=O)O	1.12
C[C@H]1[C@H](C)CC[C@]2(C(=O)O)CC[C@]3(C)C(=CC[C@@H]4[C@@]5(C)C[C@@H](O)[C@H](O)[C@@](C)(CO)[C@@H]5CC[C@]43C)[C@H]12	1.1
CN1C(C(=O)Nc2ccccn2)=C(O)c2ccccc2S1(=O)=O	0.975
CC1(C)C=CC(=O)[C@@]2(C)C1CC(=O)[C@]1(C)C2CC[C@@]2(C)[C@H](c3ccoc3)OC(=O)C3OC321 (stereo partly drawn)	0.71
Cc1cc(-c2ccccc2)nnc1NCCN1CCOCC1	0.946
OCCN1CCN(CCCN2c3ccccc3Sc3ccc(C(F)(F)F)cc32)CC1	0.973
C[N+]1(C)[C@@H]2CC[C@H]1C[C@@H](OC(=O)C(O)c1ccccc1)C2 (stereo partly drawn)	0.941
CCN(CC)C(=O)c1cccc(C)c1	1.01
C=C(C)[C@@H]1C[C@H](O)[C@]2(C(=O)O[C@@H]3O[C@H](CO[C@@H]4O[C@H](CO)[C@@H](O[C@@H]5O[C@@H](C)[C@H](O)[C@@H](O)[C@H]5O)[C@H](O)[C@H]4O)[C@@H](O)[C@H](O)[C@H]3O)CC[C@]3(C)[C@H](C[C@H]4OC(=O)C[C@@H](O)[C@]5(C)[C@@H]4[C@@]3(C)CC[C@H]5C(=C)C)[C@@H]12 [22alpha-hydroxychiisanoside (4)]	0.878
CC1=C(/C=C/C(C)=C/C=C/C(C)=C\C(=O)O)C(C)(C)CCC1	0.949
CNC1(C)C2CCC(C2)C1(C)C (stereo not drawn)	0.972
CO/N=C(\C(=O)N[C@@H]1C(=O)N2C(C(=O)OCOC(=O)C(C)(C)C)=C(/C=C\c3scnc3C)CS[C@H]12)c1csc(N)n1	0.985
CC(C)=CCc1c2c(c(O)c3c(=O)c(O)c(-c4ccccc4)oc13)C=CC(C)(C)O2	0.998
COc1cccc2c1C(=O)c1c(O)c3c(c(O)c1C2=O)C[C@@](O)(C(C)=O)C[C@@H]3O[C@H]1C[C@H](NC=O)[C@H](O)[C@H](C)O1	0.838
CCCn1c(=O)c2[nH]c(C3CCCC3)nc2n(CCC)c1=O	1.03
N/C(=N\C(=O)c1nc(Cl)c(N)nc1N)NCc1ccccc1	0.969
O=C(NOC[C@H](O)CO)c1ccc(F)c(F)c1Nc1ccc(I)cc1F	0.895
O=C(O)c1cc(O)ccc1O	0.999
COC(=O)C1=CO[C@@H](O[C@@H]2O[C@H](CO)[C@@H](O)[C@H](O)[C@H]2O)[C@@H]2[C@@H](C)CC(=O)[C@]12O	0.88
CC(=O)Oc1cc(C)c2c(c1C(OC(C)=O)OC(C)=O)Oc1c(c(C)c(OC(C)=O)c3c1C(OC(C)=O)OC3=O)OC2=O (stereo not drawn)	0.975
CC(C)C[C@@H]1NC(=O)[C@H](CCCN)NC(=O)[C@H](C(C)C)NC(=O)[C@H](Cc2ccc(O)cc2)N[C@@H](CCC(=O)O)C(=O)N[C@@H](CC(N)=O)C(=O)[C@@H](Cc2ccccc2)NC(=O)[C@H](Cc2ccccc2)NC(=O)[C@@H]2CCCN2C(=O)[C@@H](Cc2ccccc2)NC1=O	0.71
